Every entry's value here was drawn from PubChem BioAssay AID602428.

Test: blockers of Gli reporter signaling – single concentration, luciferase luminescence, Sufu-KO-LIGHT cells, confirmation (AID 602428)
Settings: at 5 µM
Screen size: about 2,500 compounds; about 980 (39%) were called active.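 Rule for the calls: active = mean inhibition at 5 µM reaching about 45% (limit read from the data); inactive = the rest.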 The list is a sample of the results.
Outcome codes: active, inactive

CNc1nnc(-c2ccco2)s1 : inactive
COc1ccc2nc(SCC(=O)Nc3c(C)cc(C)cc3C)[nH]c2c1 : inactive
N#Cc1ccc(C(=O)Nc2nc(-c3cccs3)c(C(=O)C(F)(F)F)s2)cc1 : active
CCc1ccc(C2C(C#N)=C(N)N(N3CCOCC3)C3=C2C(=O)CC(C)(C)C3)s1 (stereo not given) : inactive
Cc1cccc2nc(CSc3nc4[nH]ncc4c(=O)n3-c3cccc(Cl)c3)cc(=O)n12 : active
